biological target: β-glucosidase; assay: In vitro β-glucosidase inhibition; assay type: biochemical; conditions: concentration range 75–600 µg/mL
Record T whenever β-glucosidase IC50 is at 100 µg/mL or higher; record F when lower.

Some solved cases for reference:
{"compound": "C[C@@H]1O[C@@H](OC[C@H]2O[C@@H](Oc3c(-c4ccc(O)c(O)c4)oc4cc(O)cc(O)c4c3=O)[C@H](O)[C@@H](O)[C@@H]2O)[C@H](O)[C@H](O)[C@H]1O [Compound 3, quercetin 3-O-rutinoside]", "assayTarget": "β-glucosidase", "label": "T"}
{"compound": "C[C@H]1O[C@H](O[C@H]2[C@H](O)[C@@H](O)[C@@H](O[C@H]3[C@H](O)[C@@H](O)C(O)O[C@@H]3CO)O[C@@H]2CO)[C@H](O)[C@@H](O)[C@@H]1N[C@H]1C=C(CO)[C@@H](O)[C@H](O)[C@H]1O (some centres unmarked) [Acarbose, reference compound]", "assayTarget": "β-glucosidase", "label": "T"}

In: Answer whether β-glucosidase IC50 of O=C(O[C@@H]1[C@@H](OC(=O)c2cc(O)c(O)c(O)c2)[C@H](O)O[C@@H]2COC(=O)c3cc(O)c(O)c(O)c3-c3c(cc(O)c(O)c3O)C(=O)O[C@@H]12)c1cc(O)c(O)c(O)c1 [Compound 4, tellimagranidine-I] is greater than or equal to 100 µg/mL.
Out: T

In: Is β-glucosidase IC50 for O=C(OC[C@H]1O[C@@H](Oc2c(-c3cc(O)c(O)c(O)c3)oc3cc(O[C@@H]4O[C@H](CO)[C@@H](O)[C@H](O)[C@H]4O)cc(O)c3c2=O)[C@H](O)[C@@H](O)[C@@H]1O)c1cc(O)c(O)c(O)c1 [Compound 1] at or above 100 µg/mL?
Out: F

* * *

target: α-amylase (Homo sapiens, UniProt P04746); construct: purchased Sigma-Aldrich (Merck, Darmstadt, Germany); test: In vitro α-amylase inhibition; format: biochemical; settings: at 300 µg/mL
Sequence (P04746 16-511): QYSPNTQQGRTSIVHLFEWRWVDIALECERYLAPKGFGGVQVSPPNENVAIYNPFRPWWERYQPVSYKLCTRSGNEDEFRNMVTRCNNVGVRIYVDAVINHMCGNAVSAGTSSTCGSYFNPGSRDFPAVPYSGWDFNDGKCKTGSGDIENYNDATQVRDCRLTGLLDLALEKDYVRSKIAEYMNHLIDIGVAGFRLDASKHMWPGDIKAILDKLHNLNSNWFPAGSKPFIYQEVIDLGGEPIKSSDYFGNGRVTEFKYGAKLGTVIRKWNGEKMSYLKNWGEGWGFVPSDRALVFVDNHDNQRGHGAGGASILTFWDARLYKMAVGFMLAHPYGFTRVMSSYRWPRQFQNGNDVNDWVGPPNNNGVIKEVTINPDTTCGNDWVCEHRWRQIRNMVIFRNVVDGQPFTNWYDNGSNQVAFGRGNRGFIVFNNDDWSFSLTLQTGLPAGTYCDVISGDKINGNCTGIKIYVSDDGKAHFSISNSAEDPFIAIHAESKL
Recorded measurements of inhibition at 300 µg/mL, one per entry
Reply with just the number (in %).

{"compound": "O=C(O[C@H]1[C@H](O)[C@@H](CO)OC(O)[C@@H]1OC(=O)c1cc(O)c(O)c(O)c1)c1cc(O)c(O)c(O)c1 (some centres unmarked)", "assayTarget": "α-amylase (Homo sapiens, UniProt P04746)", "uom": "%", "inhibition at 300 µg/mL": 78}
{"compound": "O=C(OC[C@H]1O[C@@H](Oc2c(-c3cc(O)c(O)c(O)c3)oc3cc(O[C@@H]4O[C@H](CO)[C@@H](O)[C@H](O)[C@H]4O)cc(O)c3c2=O)[C@H](O)[C@@H](O)[C@@H]1O)c1cc(O)c(O)c(O)c1", "assayTarget": "α-amylase (Homo sapiens, UniProt P04746)", "uom": "%", "inhibition at 300 µg/mL": 91.4}
{"compound": "C[C@@H]1O[C@@H](OC[C@H]2O[C@@H](Oc3c(-c4ccc(O)c(O)c4)oc4cc(O)cc(O)c4c3=O)[C@H](O)[C@@H](O)[C@@H]2O)[C@H](O)[C@H](O)[C@H]1O [Compound 3, quercetin 3-O-rutinoside]", "assayTarget": "α-amylase (Homo sapiens, UniProt P04746)", "uom": "%", "inhibition at 300 µg/mL": 72.1}
{"compound": "C[C@@H]1O[C@@H](OC[C@H]2O[C@@H](Oc3c(-c4ccc(O)cc4)oc4cc(O)cc(O)c4c3=O)[C@H](O)[C@@H](O)[C@@H]2O)[C@H](O)[C@H](O)[C@H]1O [Compound 2, kaempfeol 3-O-rutinoside]", "assayTarget": "α-amylase (Homo sapiens, UniProt P04746)", "uom": "%", "inhibition at 300 µg/mL": 80.4}

In: Give the reported inhibition at 300 µg/mL for this compound. "O=C(O[C@@H]1[C@@H](OC(=O)c2cc(O)c(O)c(O)c2)[C@H](O)O[C@@H]2COC(=O)c3cc(O)c(O)c(O)c3-c3c(cc(O)c(O)c3O)C(=O)O[C@@H]12)c1cc(O)c(O)c(O)c1"
Out: 78.9
